Measured values drawn from ChEMBL document CHEMBL6092182 for this set.

Each entry below carries its recorded Activity.
- run.description: Prodrug conversion in human plasma assessed as formation of Ac-monoanion metabolite by measuring metabolite peak intensity at 100 uM incubated for 1 hr by LCMS analysis
- Type: ADME, cell-free
// return just the number, without any unit appended

Reference set (4 entries):
> print(dat)
                                   compound  result.number
1  CC(=O)OC/C(C)=C/CCP(=O)(OCOC(=O)CC1CCCCC1)Oc1ccc(C(C)C)cc1 (stereo unspecified)           2400
2  COc1ccc(C(=O)OCOP(=O)(CC/C=C(\C)COC(C)=O)Oc2ccc(C(C)C)cc2)cc1 (stereo unspecified)           3500
3  CC(=O)OC/C(C)=C/CCP(=O)(OCOC(=O)C1CCOCC1)Oc1ccc(C(C)C)cc1 (stereo unspecified)           9900
4  CC(=O)OC/C(C)=C/CCP(=O)(OCOC(=O)c1ccccc1)Oc1ccc(C(C)C)cc1 (stereo unspecified)          12000

Check the records and state Activity for CC(=O)OC/C(C)=C/CCP(=O)(OCOC(=O)CC1CCOCC1)Oc1ccc(C(C)C)cc1 (stereo unspecified)
6100

Check the records and state Activity for CC(=O)OC/C(C)=C/CCP(=O)(OCOC(=O)CC1CCOCC1)Oc1cccc2ccccc12 (stereo unspecified)
2900

* * *

- run.description: Prodrug conversion in human plasma assessed as formation of mono-anion metabolite by measuring metabolite peak intensity at 100 uM incubated for 1 hr by LCMS analysis
- Type: ADME, cell-free
value.kind: Activity

Check the records and state Activity for C/C(=C\CCP(=O)(OCOC(=O)c1ccccc1)Oc1ccc(C(C)C)cc1)CO (stereo not given)
7900

Check the records and state Activity for CC(=O)OC/C(C)=C/CCP(=O)(OCOC(=O)C1CCOCC1)Oc1ccc(C(C)C)cc1 (stereo not given)
3200

Check the records and state Activity for C/C(=C\CCP(=O)(OCOC(=O)CC1CCOCC1)Oc1ccc(C(C)C)cc1)CO (stereo not given)
16000

Check the records and state Activity for C/C(=C\CCP(=O)(OCOC(=O)C1CCOCC1)Oc1ccc(C(C)C)cc1)CO (stereo not given)
13000

Check the records and state Activity for CC(=O)OC/C(C)=C/CCP(=O)(OCOC(=O)CC1CCOCC1)Oc1cccc2ccccc12 (stereo not given)
2800

* * *

- run.description: Stability in human plasma assessed as compound remaining at 100 uM measured after 2 hrs by MS analysis
- Assay type: ADME, cell-free
- run.conditions: read-out: Stability
value.kind: remaining at 2 h, 100 µM (%)
Just the number please, in %, no unit attached.

Check the records and state remaining at 2 h, 100 µM for C/C(=C\CCP(=O)(OCOC(=O)C1CCCCC1)Oc1ccccc1)CO (stereo unspecified)
0

* * *

- run.description: Stability in human plasma assessed as compound remaining at 100 uM measured after 2 hrs by MS analysis
- Assay type: ADME, cell-free
- run.conditions: 2 h, 100 µM
Label label 1 when Stability is strictly below 10%; at or above that, label label 0.

Below are worked cases with known answers.
> print(dat)
                                   compound  class.name
1  CC(=O)OC/C(C)=C/CCP(=O)(OCOC(=O)c1ccccc1)Oc1ccc(C(C)C)cc1 (configuration not stated)     label 0
2  C/C(=C\CCP(=O)(OCOC(=O)CC1CCOCC1)Oc1ccc(C(C)C)cc1)CO (configuration not stated)     label 1
3  COc1ccc(C(=O)OCOP(=O)(CC/C=C(\C)CO)Oc2ccc(C(C)C)cc2)cc1 (configuration not stated)     label 0
4  C/C(=C\CCP(=O)(OCOC(=O)c1ccccc1)Oc1ccc(C(C)C)cc1)CO (configuration not stated)     label 0
5  CC(=O)OC/C(C)=C/CCP(=O)(OCOC(=O)C1CCOCC1)Oc1ccc(C(C)C)cc1 (configuration not stated)     label 1

Would you kindly verify if Stability of CC(=O)OC/C(C)=C/CCP(=O)(OCOC(=O)CC1CCOCC1)Oc1cccc2ccccc12 (configuration not stated) is strictly less than 10%?
label 1

Would you kindly verify if Stability of C/C(=C\CCP(=O)(OCOC(=O)C1CCOCC1)Oc1ccc(C(C)C)cc1)CO (configuration not stated) is strictly less than 10%?
label 1

Would you kindly verify if Stability of COc1ccc(C(=O)OCOP(=O)(CC/C=C(\C)COC(C)=O)Oc2ccc(C(C)C)cc2)cc1 (configuration not stated) is strictly less than 10%?
label 0

* * *

- run.description: Prodrug conversion in human plasma assessed as formation of mono-anion metabolite by measuring metabolite peak intensity at 100 uM incubated for 1 hr by LCMS analysis
- Format: ADME, cell-free
Each entry below carries its recorded Activity.

Reference set (3 entries):
> print(dat)
                                   compound  value.kind  result
1  CC(=O)OC/C(C)=C/CCP(=O)(OCOC(=O)CC1CCCCC1)Oc1ccc(C(C)C)cc1 (configuration not stated)    Activity     330
2  COc1ccc(C(=O)OCOP(=O)(CC/C=C(\C)COC(C)=O)Oc2ccc(C(C)C)cc2)cc1 (configuration not stated)    Activity     830
3  C/C(=C\CCP(=O)(OCOC(=O)CC1CCCCC1)Oc1ccc(C(C)C)cc1)CO (configuration not stated)    Activity    4500

Check the records and state Activity for CC(=O)OC/C(C)=C/CCP(=O)(OCOC(=O)c1ccccc1)Oc1ccc(C(C)C)cc1 (configuration not stated)
300

Check the records and state Activity for COc1ccc(C(=O)OCOP(=O)(CC/C=C(\C)CO)Oc2ccc(C(C)C)cc2)cc1 (configuration not stated)
5900

Check the records and state Activity for C/C(=C\CCP(=O)(OCOC(=O)CC1CCOCC1)Oc1cccc2ccccc12)CO (configuration not stated)
11000

Check the records and state Activity for CC(=O)OC/C(C)=C/CCP(=O)(OCOC(=O)CC1CCOCC1)Oc1ccc(C(C)C)cc1 (configuration not stated)
3000

* * *

- run.description: Stimulation of IL-2-treated human Vgamma9Vdelta2 T cell proliferation incubated for 72 hrs followed by compound washout measured after 11 days by flow cytometry
- Type: functional, cell-based
value.kind: EC50 (pM)
Just the number please, in pM, no unit attached.

Reference set (4 entries):
> print(dat)
                                   compound  units.of.measure  result.number
1  CC(=O)OC/C(C)=C/CCP(=O)(OCOC(=O)CC1CCCCC1)Oc1ccc(C(C)C)cc1 (stereo not given)                pM            540
2  C/C(=C\CCP(=O)(OCOC(=O)CC1CCOCC1)Oc1cccc2ccccc12)CO (stereo not given)                pM            370
3  C/C(=C\CCP(=O)(OCOC(=O)CC1CCCCC1)Oc1ccc(C(C)C)cc1)CO (stereo not given)                pM           1100
4  COc1ccc(C(=O)OCOP(=O)(CC/C=C(\C)CO)Oc2ccc(C(C)C)cc2)cc1 (stereo not given)                pM           1500

Check the records and state EC50 for COc1ccc(C(=O)OCOP(=O)(CC/C=C(\C)COC(C)=O)Oc2ccc(C(C)C)cc2)cc1 (stereo not given)
840

* * *

- run.description: Stimulation of IL-2-treated human Vgamma9Vdelta2 T cell proliferation assessed as IFN-gamma release pretreated human […] cells with compound for 1 hr followed by compound washout and addition of washed K562 cells to medium containing Vgamma9Vdelta2 T cells measured after 20 hrs by ELISA
- Format: functional, cell-based
Label Criterion met when EC50 is strictly below 4 nM; at or above that, label Criterion not met.

Below are worked cases with known answers.
> print(dat)
                                   molecule         class.name
1  CC(=O)OC/C(C)=C/CCP(=O)(OCOC(=O)C1CCOCC1)Oc1ccc(C(C)C)cc1 (stereo not given)      Criterion met
2  COc1ccc(C(=O)OCOP(=O)(CC/C=C(\C)CO)Oc2ccc(C(C)C)cc2)cc1 (stereo not given)  Criterion not met
3  CC(=O)OC/C(C)=C/CCP(=O)(OCOC(=O)CC1CCCCC1)Oc1ccc(C(C)C)cc1 (stereo not given)      Criterion met

Consider the record given below.
Would you kindly verify if EC50 of C/C(=C\CCP(=O)(OCOC(=O)CC1CCOCC1)Oc1cccc2ccccc12)CO (stereo not given) is strictly less than 4 nM?
Criterion not met

* * *

- run.description: Stability in human plasma assessed as compound remaining at 100 uM measured after 2 hrs by MS analysis
- Format: ADME, cell-free
- run.conditions: 2 h, 100 µM
Each entry below carries its recorded Stability.
Just the number please, in %, no unit attached.

> print(dat)
                                   molecule  units.of.measure  result.number
1  C/C(=C\CCP(=O)(OCOC(=O)CC1CCCCC1)Oc1ccc(C(C)C)cc1)CO (centres undefined)                 %             80

Check the records and state Stability for CC(=O)OC/C(C)=C/CCP(=O)(OCOC(=O)CC1CCOCC1)Oc1ccc(C(C)C)cc1 (centres undefined)
28

Check the records and state Stability for CC(=O)OC/C(C)=C/CCP(=O)(OCOC(=O)CC1CCCCC1)Oc1ccc(C(C)C)cc1 (centres undefined)
90

Check the records and state Stability for C/C(=C\CCP(=O)(OCOC(=O)CC1CCOCC1)Oc1cccc2ccccc12)CO (centres undefined)
0
